Target: benzodiazepine receptors of the peripheral type (Felis catus, UniProt A0ABI7ZQW3)
Assay: inhibition of specific binding of [3H] PK11195 to peripheral type benzodiazepine receptors, membrane proteins of cat brain
Conditions: [3H] PK11195 0.5 nM, cat brain membranes, 4° C., 2h30; read-out: IC50 (peripheral)
# log10 IC50 annotations
Parameter value (number): base-10 log of IC50 in nM.

                                   compound  reported_measurement
0  CCCN(CCC)C(=O)C(C)Nc1c(C(=O)OCC)cnc2cc(C(F)(F)F)ccc12 (stereo not shown)                  0.48
1  CN(CC(=O)N(C)c1ccc(Cl)cc1)c1c(C(=O)c2ccccc2)cnc2nc(Cl)ccc12                  2.52
2  CN(CC(=O)N(C)c1ccc(Cl)cc1)c1c(C(=O)c2ccccc2)cnc2cccnc12                  0.51
3  CCCN(C(=O)CNc1c(C(=O)c2ccccc2)cnc2cc(Cl)ccc12)c1ccc(Cl)cc1                  0.60

Q: Give the reported log10 IC50 for "CN(C(=O)CNc1c(C(=O)c2ccccc2)cnc2cccnc12)c1c(Cl)cccc1Cl" (system: benzodiazepine receptors of the peripheral type (Felis catus, UniProt A0ABI7ZQW3)).
Ans: -0.10

Q: For the record CCOC(=O)c1cnc2nc(Cl)ccc2c1NC(C)C(=O)N(C)c1ccc(Cl)cc1 (stereo not shown) , what value of log10 IC50 is listed for benzodiazepine receptors of the peripheral type (Felis catus, UniProt A0ABI7ZQW3)?
Ans: 0.70

Q: Under benzodiazepine receptors of the peripheral type (Felis catus, UniProt A0ABI7ZQW3): log10 IC50 value of "COc1ccc(N(C)C(=O)CNc2c(C(=O)c3ccccc3)cnc3cc(Br)ccc23)cc1" ?
Ans: 0.00

Q: Report log10 IC50 for "CCCN(CCC)C(=O)CNc1c(C(=O)c2ccc(Cl)cc2)cnc2ccc(Cl)cc12" tested on benzodiazepine receptors of the peripheral type (Felis catus, UniProt A0ABI7ZQW3).
Ans: 1.11

Q: So what log10 IC50 did "CN(C(=O)CNc1c(C(=O)c2ccccc2)cnc2nc(Cl)ccc12)c1ccc(Cl)cc1" get with benzodiazepine receptors of the peripheral type (Felis catus, UniProt A0ABI7ZQW3)?
Ans: 1.45

Q: Recall the recorded log10 IC50 for "CN(C(=O)CNc1c(C(=O)c2ccccc2)cnc2cc(F)ccc12)c1ccc(Cl)cc1" with benzodiazepine receptors of the peripheral type (Felis catus, UniProt A0ABI7ZQW3) and state it.
Ans: 0.60

====

Experiment: oral acute toxicity in the mouse (LD50)
Type: in vivo
Conditions: in vivo, oral route
Experimental: The compounds of Examples 3, 67, 90, 107 and 114 are atoxic at the dose of 500 mg/kg in the mouse.
Parameter measured: LD50 (mg/kg)
Quick reminder: number only, in mg/kg, skip the unit.

Q: Form field: reported LD50 of CCCN(CCC)C(=O)C(C)Nc1c(C(=O)OCC)cnc2cc(C(F)(F)F)ccc12 (centres unmarked)
Ans: 1100

====

Target: central benzodiazepine receptors
Test: inhibition of specific binding of [3H] flunitrazepam to central benzodiazepine receptors, rat brain
Settings: 4° C., pH 7.4
Parameter measured: IC50

Would you please look over these solved cases?
In [3]: df
Out[3]:
                                   compound  reported_measurement
0  CCCN(CCC)C(=O)CNc1c(C(=O)c2ccccc2)cnc2c(Cl)cccc12               > 10 µM
1  CCCCN(CCCC)C(=O)C(C)Nc1c(C(=O)OCC)cnc2cc(C(F)(F)F)ccc12 (centres unmarked)               > 20 µM
2  CCCN(CCC)C(=O)C(C)Nc1c(C(=O)OCC)cnc2cc(F)ccc12 (centres unmarked)               > 20 µM
3  CCCN(CCC)C(=O)C(C)Nc1c(C(=O)OCC)cnc2cc(C(F)(F)F)ccc12 (centres unmarked)               > 20 µM
4  CCCCN(CCCC)C(=O)CNc1c(C(=O)c2ccccc2)cnc2cc(Cl)ccc12               > 10 µM
5  CCCN(CCC)C(=O)CNc1c(C(=O)c2ccccc2)cnc2ccc(Cl)cc12               1.64 µM
6  CCCN(CCC)C(=O)C(C)Nc1c(C(=O)OCC)cnc2cc(C)c(C)cc12 (centres unmarked)                 53 µM

Moving on to another compound below.
Q: Entry "CN(CC(=O)N(C)c1ccc(Cl)cc1)c1c(C(=O)c2ccccc2)cnc2cc(Cl)ccc12" has what IC50?
Ans: > 10 µM

====

As shown below, each of these compounds has a reported % Inhibition, brain value.
Test system: receptors of the peripheral type
Assay: in vivo inhibition of [3H] PK11195 binding to peripheral type receptors in organs of the mouse
Conditions: 25 mg/kg oral, brain
# do not omit the unit; it follows the number

In [3]: df
Out[3]:
                                   compound  reported_measurement
0  COc1ccc(C(=O)c2cnc3cccnc3c2NCC(=O)N(C)c2ccc(Cl)cc2)cc1                   87%

Next compound, % Inhibition, brain to be filled in.
Q: For the compound shown here, "CN(C(=O)CNc1c(C(=O)c2ccccc2)cnc2cc(Br)ccc12)c1ccc(Cl)cc1" , give the reported % Inhibition, brain.
Ans: 84%

====

In this section we review reported pIC50 values for a set of compounds.
Target: UniProt A0ABI7ZQW3
Sequence (A0ABI7ZQW3 15-183): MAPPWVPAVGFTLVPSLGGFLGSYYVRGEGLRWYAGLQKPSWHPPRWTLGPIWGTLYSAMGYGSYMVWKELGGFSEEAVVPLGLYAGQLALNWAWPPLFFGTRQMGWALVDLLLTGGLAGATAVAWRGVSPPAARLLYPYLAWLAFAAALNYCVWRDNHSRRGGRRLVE
Assay: inhibition of specific binding of [3H] PK11195 to peripheral type benzodiazepine receptors, membrane proteins of cat brain
Conditions: [3H] PK11195 0.5 nM, cat brain membranes, 4° C., 2h30; read-out: IC50 (peripheral)
Quick note: pIC50 means taking -log10 of the concentration in moles per liter.

Known results for compounds:
>>> df
                                   compound  parameter_measured  reported_measurement
0  CCCN(CCC)C(=O)CNc1c(C(=O)c2cccnc2)cnc2cc(Cl)ccc12               pIC50                  7.46
1  CCCN(CCC)C(=O)C(C)Nc1c(C(=O)OCC)cnc2cc(C)c(C)cc12 (centres unmarked)               pIC50                  8.30
2  CC(Nc1c(C(=O)c2ccccc2)cnc2cccnc12)C(=O)N(C)c1ccc(Cl)cc1 (centres unmarked)               pIC50                  9.00

Q: Recorded pIC50 for CCCN(CCC)C(=O)C(C)Nc1c(C(=O)OCC)cnc2c(Cl)cccc12 (centres unmarked) , please?
Ans: 8.22

Q: Could you share which pIC50 value was measured for "CN(C(=O)CCNc1c(C(=O)c2ccccc2)cnc2cccnc12)c1ccc(Cl)cc1" ?
Ans: 8.56

Q: Record request: pIC50 value, item CCCN(CCC)C(=O)C(C)Nc1c(C(=O)OCC)cnc2cc(Cl)c(Cl)cc12 (centres unmarked)
Ans: 9.00

Q: # pIC50 lookup, item "CCN(C(=O)CNc1c(C(=O)c2ccccc2)cnc2cccnc12)c1ccc(Cl)cc1"
Ans: 9.11

Q: Requested read-out: pIC50. Entry: "CN(C(=O)CNc1c(C(=O)c2ccccc2)c[n+]([O-])c2cccnc12)c1ccc(Cl)cc1"
Ans: 7.97

====

Quick list: log10(IC50) per entry.
Target: benzodiazepine receptors of the peripheral type (Felis catus)
Experiment: inhibition of specific binding of [3H] PK11195 to peripheral type benzodiazepine receptors, membrane proteins of cat brain
Details: [3H] PK11195 0.5 nM, cat brain membranes, 4° C., 2h30; read-out: IC50 (peripheral)
Experimental: The method is similar to that described by J. Benavides et al. in Brain Res. Bull. 13 p. 69-77 (1984) and references cited therein. Suspensions of membrane proteins of cat brain were prepared as described by J. Benavides. The assays of inhibition of the binding of [^3 H] Non specific binding was defined as the amount of [^3 H]
Use the decimal logarithm of IC50 (nM).

>>> df
                                   molecule  reported_measurement
0  CN(C(=O)CNc1c(C(=O)c2ccccc2)cnc2cc(Br)ccc12)c1ccc(Cl)cc1                 -0.30
1  CCCN(CCC)C(=O)C(C)Nc1c(C(=O)OCC)cnc2cc(Cl)ccc12 (single isomer, unassigned) [compound 26378]                  0.00
2  CCOc1ccc(N(C)C(=O)CNc2c(C(=O)c3ccccc3)cnc3cc(Cl)ccc23)cc1                  1.83
3  COc1ccc(N(C)C(=O)CNc2c(C(=O)c3ccccc3)cnc3cc(Cl)ccc23)cc1 [compound 26846]                  0.46

Q: // query log10(IC50) value for entry CCCN(CCC)C(=O)C(C)Nc1c(C(=O)OCC)cnc2cc(OC)ccc12 (stereo not shown)
Ans: 1.04

Q: Would you kindly share the measured log10(IC50) for "CN(C(=O)CNc1c(C(=O)c2ccccc2)cnc2cnccc12)c1ccc(Cl)cc1" ?
Ans: 1.72

Q: Return reported log10(IC50); argument: COc1ccc(N(C)C(=O)CNc2c(C(=O)c3ccccc3)cnc3cc(Cl)ccc23)cc1 [compound 27196]
Ans: -0.10

Q: Which measured log10(IC50) value corresponds to "CN(C(=O)CNc1c(C(=O)c2ccccc2)cnc2cc(C(F)(F)F)ccc12)c1ccc(Cl)cc1" ?
Ans: 1.04

Q: Looking for the measured log10(IC50) of CCCN(CCC)C(=O)C(C)Nc1c(C(=O)OCC)c(C)nc2ccc(Cl)cc12 (stereo not shown) , can you help?
Ans: 0.90

Q: Fill blank: measured log10(IC50) of the molecule "CN(C(=O)CNc1c(C(=O)c2ccccc2)cnc2nc(Cl)ccc12)c1ccccc1Cl" is ____.
Ans: 1.66
